# test target: T1, EsCas13d, nuclease-dead (Eubacterium siraeum, UniProt B0MS50, R295A;H300A;R849A;H854A)
# T1 sequence: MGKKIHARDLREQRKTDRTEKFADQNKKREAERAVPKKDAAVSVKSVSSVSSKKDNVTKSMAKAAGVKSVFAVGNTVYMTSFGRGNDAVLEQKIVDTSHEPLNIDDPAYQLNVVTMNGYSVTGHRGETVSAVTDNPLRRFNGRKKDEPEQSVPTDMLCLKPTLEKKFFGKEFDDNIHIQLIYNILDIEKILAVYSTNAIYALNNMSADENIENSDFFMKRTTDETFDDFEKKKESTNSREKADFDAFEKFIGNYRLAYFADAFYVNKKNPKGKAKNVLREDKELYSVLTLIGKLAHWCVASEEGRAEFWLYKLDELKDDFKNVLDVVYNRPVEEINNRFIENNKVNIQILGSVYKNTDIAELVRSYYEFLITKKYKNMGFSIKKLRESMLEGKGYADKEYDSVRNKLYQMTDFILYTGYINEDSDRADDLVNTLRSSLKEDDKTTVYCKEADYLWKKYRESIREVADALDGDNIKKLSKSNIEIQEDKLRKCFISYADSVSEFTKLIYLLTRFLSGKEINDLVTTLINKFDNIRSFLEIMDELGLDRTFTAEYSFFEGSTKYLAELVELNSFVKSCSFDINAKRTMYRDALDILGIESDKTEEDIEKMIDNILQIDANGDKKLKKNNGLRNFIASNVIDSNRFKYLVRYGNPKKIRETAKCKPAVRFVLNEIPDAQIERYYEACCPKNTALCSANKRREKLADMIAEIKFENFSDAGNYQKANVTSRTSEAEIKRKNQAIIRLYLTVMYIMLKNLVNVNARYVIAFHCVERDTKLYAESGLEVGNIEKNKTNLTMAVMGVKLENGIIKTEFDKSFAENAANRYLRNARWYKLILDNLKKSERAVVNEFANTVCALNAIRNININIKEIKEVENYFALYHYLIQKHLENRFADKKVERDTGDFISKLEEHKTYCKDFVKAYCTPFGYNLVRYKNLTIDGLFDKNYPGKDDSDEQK
# measurement protocol: crRNA (strand 1, pre-loaded); Mg2+; 40 mM Tris-HCl pH 7.5, 150 mM NaCl, 6 mM MgCl2, 1 mM DTT, 0.1% Tween-20, 0.2 mg/ml BSA; 25 C; 10 min per concentration, then washed
# stated conditions: tags: His6-TwinStrep-SUMO cleaved; N-terminal SNAP kept (SNAP-Surface 488); label: 3' end held by stalled T7 RNA polymerase
test readout: pKd
Conceptually, pKd converts a concentration in mol/L into minus its log10.

Solved cases (7 shown):
binder	pKd
target 2 MT 5'PFS CGC 3'PFS ACC (mixed) RNA 1: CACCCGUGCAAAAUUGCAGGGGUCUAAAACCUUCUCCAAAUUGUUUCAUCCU RNA 2: GGGAAUGGAUCCACAUCUACGAAUUCCGCAGGAUGAAACAAUUUGGAGAAGACCAGAUCGGAAGAGCACACGU	7.74
target 1 MT 5'PFS UCG 3'PFS UCA (mixed) RNA 1: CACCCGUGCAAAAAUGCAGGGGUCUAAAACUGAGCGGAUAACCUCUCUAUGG RNA 2: GGGAAUGGAUCCACAUCUACGAAUUCUCGCCAUAGAGAGGUUAUCCGCUCAUCAAGAUCGGAAGAGCACACGU	7.41
target 2 MT 5'PFS GAU 3'PFS UUA (mixed) RNA 1: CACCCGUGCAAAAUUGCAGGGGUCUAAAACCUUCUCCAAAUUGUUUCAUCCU RNA 2: GGGAAUGGAUCCACAUCUACGAAUUCGAUAGGAUGAAACAAUUUGGAGAAGUUAAGAUCGGAAGAGCACACGU	7.64
target 1 insA 3' of 8,insA 3' of 6 (mixed) RNA 1: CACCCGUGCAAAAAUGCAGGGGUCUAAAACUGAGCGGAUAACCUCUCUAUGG RNA 2: GGGAAUGGAUCCACAUCUACGAAUUCGUACCAUAGAGAGGUUAUACCAGCUCACCGAGAUCGGAAGAGCACACGU	7.86
target 2 MT 5'PFS CUU 3'PFS AGC (mixed) RNA 1: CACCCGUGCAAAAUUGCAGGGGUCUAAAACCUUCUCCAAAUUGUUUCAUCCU RNA 2: GGGAAUGGAUCCACAUCUACGAAUUCCUUAGGAUGAAACAAUUUGGAGAAGAGCAGAUCGGAAGAGCACACGU	8.64
target 1 complement block 2-7 (mixed) RNA 1: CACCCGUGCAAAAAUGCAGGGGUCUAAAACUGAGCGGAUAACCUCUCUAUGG RNA 2: GGGAAUGGAUCCACAUCUACGAAUUCGUACCAUAGAGAGGUUAUGGCGAGACCGAGAUCGGAAGAGCACACGU	7.86
target 3 del1,del2 (mixed) RNA 1: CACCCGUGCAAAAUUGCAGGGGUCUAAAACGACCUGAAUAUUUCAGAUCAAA RNA 2: GGGAAUGGAUCCACAUCUACGAAUUCGUUUUUGAUCUGAAAUAUUCAGGUGCAGAUCGGAAGAGCACACGU	7.35

Then this binder:
// query State, in one line, measured pKd of target 2 MT 5'PFS AUG 3'PFS AGU (mixed) RNA 1: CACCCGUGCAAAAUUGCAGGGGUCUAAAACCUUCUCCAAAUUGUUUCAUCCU RNA 2: GGGAAUGGAUCCACAUCUACGAAUUCAUGAGGAUGAAACAAUUUGGAGAAGAGUAGAUCGGAAGAGCACACGU
// result 7.95
